Assay: concentration in blood after subcutaneous administration to mice (paper disk method, Morganella morganii IFO 3843)
Format: in vivo, mice (ddY, male)
Details: mouse, sc, 20 mg/kg subcutaneous, 120 min
Procedure: As a representative example, the compound of Example 15 was administered to mice by means of subcutaneous administration, and the concentration in the blood was measured. […] Further, the antibacterial activities of the sample diluted by plasma to have an appropriate concentration were measured by the paper disk method using Morganella morganii IFO 3843 as the test bacterium.
Reported Property: concentration at 2 h (ng/mL)
Express the result in ng/mL but write the number alone.

Recorded concentration at 2 h of "C=C(O/N=C(\C(=O)N[C@@H]1C(=O)N2C(C(=O)O)=C(CSc3nc(C(=O)O)c(-c4ccc(O)c(O)c4)s3)CS[C@H]12)c1csc(N)n1)C(=O)O" , please.
7100

====

Known MIC of a selection of compounds
Test system: M. morganii GN5407*
Assay: in vitro antibacterial activity, agar plate dilution method
Type: cell-based
Conditions: Morganella morganii, GN5407, 16 h
Express the result in µg/mL but write the number alone.

Observe how each entry below is paired with its result.
C=C(O/N=C(\C(=O)N[C@@H]1C(=O)N2C(C(=O)[O-])=C(C[n+]3cccc4c3CCC4)CS[C@H]12)c1csc(N)n1)C(=O)O [Example 2] :: 0.025
C=C(O/N=C(\C(=O)N[C@@H]1C(=O)N2C(C(=O)O)=C(C[n+]3ccc(CS(=O)(=O)[O-])cc3)CS[C@H]12)c1csc(N)n1)C(=O)O [Example 7] :: 0.025
C=C(O/N=C(\C(=O)N[C@@H]1C(=O)N2C(C(=O)[O-])=C(C[n+]3cccc(N)c3)CS[C@H]12)c1csc(N)n1)C(=O)O [Example 9] :: 0.39
C=C(O/N=C(\C(=O)N[C@@H]1C(=O)N2C(C(=O)O)=C(C[n+]3ccc(CCS(=O)(=O)[O-])cc3)CS[C@H]12)c1csc(N)n1)C(=O)O [Example 8] :: 0.05
C=C(O/N=C(\C(=O)N[C@@H]1C(=O)N2C(C(=O)[O-])=C(C[n+]3cccc(C(=O)O)c3)CS[C@H]12)c1csc(N)n1)C(=O)O [Example 3] :: 0.05

Recorded MIC of CC(C)(O/N=C(\C(=O)N[C@@H]1C(=O)N2C(C(=O)[O-])=C(C[n+]3ccccc3)CS[C@H]12)c1csc(N)n1)C(=O)O [Ceftazidime, reference compound] , please.
0.1

====

Tested on: K. pneumoniae No. 42*
Assay: in vitro antibacterial activity, agar plate dilution method
Type: cell-based
Conditions: Klebsiella pneumoniae, 16 h
Procedure: Now, the in vitro antibacterial activities of the compounds of the present invention against various microorganisms, were measured by the following agar plate dilution method. One platinum loopfull of each test microorganism incubated overnight in Mueller Hinton broth, was inoculated to Mueller Hinton agar (MH agaer). […] After incubation at 37° C. for 16 hours, the minimum inhibitory concentrations (MIC μg/ml) were measured.
Known MIC of a selection of molecules
Express the result in µg/mL but write the number alone.

Observe how each entry below is paired with its result.
C=C(O/N=C(\C(=O)N[C@@H]1C(=O)N2C(C(=O)O)=C(CSc3nc(-c4ccc(OC(C)=O)c(OC(C)=O)c4)c(CC(=O)O)s3)CS[C@H]12)c1csc(N)n1)C(=O)O :: 0.1
C=C(O/N=C(\C(=O)N[C@@H]1C(=O)N2C(C(=O)[O-])=C(C[n+]3cccc(C(N)=O)c3)CS[C@H]12)c1csc(N)n1)C(=O)O :: 0.1
C=C(O/N=C(\C(=O)N[C@@H]1C(=O)N2C(C(=O)[O-])=C(C[n+]3ccc(C(=O)O)cc3)CS[C@H]12)c1csc(N)n1)C(=O)O :: 0.39
CC(C)(O/N=C(\C(=O)N[C@@H]1C(=O)N2C(C(=O)[O-])=C(C[n+]3ccccc3)CS[C@H]12)c1csc(N)n1)C(=O)O [Ceftazidime, reference compound] :: 0.39

Switching to the query record.
API: value(readout=MIC, system=K. pneumoniae No. 42*) for record "C=C(O/N=C(\C(=O)N[C@@H]1C(=O)N2C(C(=O)O)=C(CSc3nc(C(=O)O)c(-c4ccc(O)c(O)c4)s3)CS[C@H]12)c1csc(N)n1)C(=O)O"
0.1

====

Test: concentration in blood after subcutaneous administration to mice (paper disk method, Morganella morganii IFO 3843)
Format: in vivo, mice (ddY, male)
Conditions: mouse, sc, 20 mg/kg subcutaneous, 15 min
Reported Property: concentration at 0.25 h (ng/mL)
Express the result in ng/mL but write the number alone.

Recorded concentration at 0.25 h of "C=C(O/N=C(\C(=O)N[C@@H]1C(=O)N2C(C(=O)O)=C(CSc3nc(C(=O)O)c(-c4ccc(O)c(O)c4)s3)CS[C@H]12)c1csc(N)n1)C(=O)O" , please.
45000

====

Tested on: E. cloacae 963
Assay: in vitro antibacterial activity, agar plate dilution method
Assay type: cell-based
Details: Enterobacter cloacae, 963, 16 h
Procedure: Now, the in vitro antibacterial activities of the compounds of the present invention against various microorganisms, were measured by the following agar plate dilution method. One platinum loopfull of each test microorganism incubated overnight in Mueller Hinton broth, was inoculated to Mueller Hinton agar (MH agaer). […] After incubation at 37° C. for 16 hours, the minimum inhibitory concentrations (MIC μg/ml) were measured.
Reported Property: MIC (µg/mL)
Express the result in µg/mL but write the number alone.

C=C(O/N=C(\C(=O)N[C@@H]1C(=O)N2C(C(=O)O)=C(CSc3nnc(C)s3)CS[C@H]12)c1csc(N)n1)C(=O)O :: 0.2

Recorded MIC of "C=C(O/N=C(\C(=O)N[C@@H]1C(=O)N2C(C(=O)[O-])=C(C[n+]3cccc4c3CCC4)CS[C@H]12)c1csc(N)n1)C(=O)O" , please.
0.05

Field entry: "C=C(O/N=C(\C(=O)N[C@@H]1C(=O)N2C(C(=O)O)=C(CSc3nc(C(=O)O)c(-c4ccc(O)c(O)c4)s3)CS[C@H]12)c1csc(N)n1)C(=O)O"
0.05

====

System: E. cloacae 963
Test: in vitro antibacterial activity, agar plate dilution method
Assay type: cell-based
Conditions: Enterobacter cloacae, 963, 16 h
Known log10 MIC of a selection of compounds
// units: µg/mL (pre-log); metric: MIC; scale: log10

Observe how each entry below is paired with its result.
C=C(O/N=C(\C(=O)N[C@@H]1C(=O)N2C(C(=O)[O-])=C(C[n+]3cccc(C(N)=O)c3)CS[C@H]12)c1csc(N)n1)C(=O)O :: -1.30
C=C(O/N=C(\C(=O)N[C@@H]1C(=O)N2C(C(=O)O)=C(CSc3nc(-c4ccc(OC(C)=O)c(OC(C)=O)c4)c(CC(=O)O)s3)CS[C@H]12)c1csc(N)n1)C(=O)O :: -0.41
C=C(O/N=C(\C(=O)N[C@@H]1C(=O)N2C(C(=O)[O-])=C(C[n+]3cccc(N)c3)CS[C@H]12)c1csc(N)n1)C(=O)O :: -1.30
CC(C)(O/N=C(\C(=O)N[C@@H]1C(=O)N2C(C(=O)[O-])=C(C[n+]3ccccc3)CS[C@H]12)c1csc(N)n1)C(=O)O [Ceftazidime, reference compound] :: -1.00

API: value(readout=log10 MIC, system=E. cloacae 963) for record "C=C(O/N=C(\C(=O)N[C@@H]1C(=O)N2C(C(=O)[O-])=C(C[n+]3ccc(C(=O)O)cc3)CS[C@H]12)c1csc(N)n1)C(=O)O"
-0.70

Field entry: "C=C(O/N=C(\C(=O)N[C@@H]1C(=O)N2C(C(=O)O)=C(C[n+]3ccc(CCS(=O)(=O)[O-])cc3)CS[C@H]12)c1csc(N)n1)C(=O)O"
-0.70

Field entry: "C=C(O/N=C(\C(=O)N[C@@H]1C(=O)N2C(C(=O)O)=C(C[n+]3ccc(CS(=O)(=O)[O-])cc3)CS[C@H]12)c1csc(N)n1)C(=O)O"
-1.00

Field entry: "C=C(O/N=C(\C(=O)N[C@@H]1C(=O)N2C(C(=O)[O-])=C(C[n+]3ccc(C(N)=O)cc3)CS[C@H]12)c1csc(N)n1)C(=O)O"
-1.30

Field entry: "C=C(O/N=C(\C(=O)N[C@@H]1C(=O)N2C(C(=O)O)=C(CSc3nnnn3C)CS[C@H]12)c1csc(N)n1)C(=O)O"
-1.00

Field entry: "C=C(O/N=C(\C(=O)N[C@@H]1C(=O)N2C(C(=O)O)=C(COC(C)=O)CS[C@H]12)c1csc(N)n1)C(=O)O"
-1.00

Field entry: "C=C(O/N=C(\C(=O)N[C@@H]1C(=O)N2C(C(=O)[O-])=C(C[n+]3cccc(NC=O)c3)CS[C@H]12)c1csc(N)n1)C(=O)O"
-1.60

====

Tested on: S. marcescens IAM 1184
Assay: in vitro antibacterial activity, agar plate dilution method
Format: cell-based
Conditions: Serratia marcescens, IAM1184; 10^6 CFU/ml; Mueller Hinton agar, 37° C., 16 hours; read-out: MIC
Known MIC of a selection of molecules
Express the result in µg/mL but write the number alone.

C=C(O/N=C(\C(=O)N[C@@H]1C(=O)N2C(C(=O)O)=C(COC(C)=O)CS[C@H]12)c1csc(N)n1)C(=O)O :: 0.0125
C=C(O/N=C(\C(=O)N[C@@H]1C(=O)N2C(C(=O)[O-])=C(C[n+]3cccc4c3CCC4)CS[C@H]12)c1csc(N)n1)C(=O)O :: 0.0125
C=C(O/N=C(\C(=O)N[C@@H]1C(=O)N2C(C(=O)[O-])=C(C[n+]3cccc(C(N)=O)c3)CS[C@H]12)c1csc(N)n1)C(=O)O :: 0.0125
C=C(O/N=C(\C(=O)N[C@@H]1C(=O)N2C(C(=O)O)=C(C[n+]3ccc(CS(=O)(=O)[O-])cc3)CS[C@H]12)c1csc(N)n1)C(=O)O :: 0.0125
C=C(O/N=C(\C(=O)N[C@@H]1C(=O)N2C(C(=O)O)=C(CSc3nc(-c4ccc(O)c(O)c4)cs3)CS[C@H]12)c1csc(N)n1)C(=O)O :: 0.05
C=C(O/N=C(\C(=O)N[C@@H]1C(=O)N2C(C(=O)O)=C(CSc3ncc(-c4ccc(O)c(O)c4)o3)CS[C@H]12)c1csc(N)n1)C(=O)O :: 0.05

Switching to the query record.
API: value(readout=MIC, system=S. marcescens IAM 1184) for record "C=C(O/N=C(\C(=O)N[C@@H]1C(=O)N2C(C(=O)O)=C(CSc3nnc(-c4ccc(O)c(O)c4)o3)CS[C@H]12)c1csc(N)n1)C(=O)O"
0.025
